We begin with a simple list: items and their reported pKd.
# MEASUREMENT_NOTES: Binding affinity to Zn(II)+ incubated for 60 mins using FluoZin-3 by fuorescence assay
pKd: −log10 of the molar value.

SMILES_NOTATION | pKd
C/C(=N\Nc1nc2ccccc2n1CCN(C)C)c1ccccn1 | 7.21
COC/C(=N\Nc1nc2ccccc2s1)c1ccccn1 | 6.71
C/C(=N\Nc1nc2ccccc2s1)c1cc(OCCN(C)C)ccn1 | 7.26
C/C(=N\Nc1nc2ccccc2o1)c1cc(OCCN(C)C)ccn1 | 7.33
C/C(=N\Nc1nccn1C)c1ccccn1 | 6.39
C/C(=N\Nc1nc2ccccc2n1CCN1CCOCC1)c1ccccn1 | 7.15
COCCOc1ccc2nc(N/N=C(\C)c3ccccn3)sc2c1 | 7.09
C/C(=N\Nc1nc2ccccc2n1CCN1CCC(F)(F)C1)c1ccccn1 | 7.59
C/C(=N\Nc1nc2ccccc2n1CCN1CCCC1)c1ccccn1 | 7.66
C/C(=N\Nc1nc2ccccc2s1)c1ncccn1 | 7.10
C/C(=N\Nc1nc2ccccc2s1)c1cc(OCCN2CCN(C)CC2)ccn1 | 7.70
C/C(=N\Nc1nc2ccccc2s1)c1cc(OCCO)ccn1 | 7.66
C/C(=N\Nc1nc2ccccc2n1C)c1ncccn1 | 7.27

###

# MEASUREMENT_NOTES: Induction of Zinc-dependent p53 R175H mutant refolding by assessing wild type conformation
Activity calls are given as the source filed them. The calls are words filed in the database; no cut-off is given here.

SMILES_NOTATION | Activity
C/C(=N\Nc1nc2ccccc2s1)c1cc(OCCN(C)C)ccn1 | Active
C/C(=N\Nc1nccn1C)c1ccccn1 | Active
C/C(=N\NC(=S)N1CCC1)c1ccccn1 | Active

###

# Test system: Sodium channel site 2
# MEASUREMENT_NOTES: Displacement of [3H]batrachotoxinin from rat Sodium channel site 2 at 10 uM incubated for 60 mins by radiometric scintillation analysis relative to control
# RUN_CONDITIONS: rat sodium channel site 2, probe [3H]batrachotoxinin
Catalogue of inhibition at 1 h, 10 µM values

SMILES_NOTATION | UNIT_DESCRIPTOR | inhibition at 1 h, 10 µM
C/C(=N\Nc1nc2ccccc2n1C)c1ccccn1 | % | 7
C/C(=N\Nc1nc2ccccc2s1)c1cc(OCCN(C)C)ccn1 | % | 36
C/C(=N\Nc1nc2ccccc2s1)c1ccccn1 | % | 101
C/C(=N\Nc1nc2ccccc2n1CCN1CCCC1)c1ccccn1 | % | 101
C/C(=N\Nc1nc2ccccc2n1CCN1CCOCC1)c1ccccn1 | % | 50
C/C(=N\Nc1nc2ccccc2o1)c1ccccn1 | % | 12
C/C(=N\Nc1nc2ccccc2o1)c1cc(OCCN(C)C)ccn1 | % | 21
C/C(=N\Nc1nccn1C)c1ccccn1 | % | 23
C/C(=N\Nc1nc2ccccc2s1)c1ncccn1 | % | 2
C/C(=N\Nc1nc2ccccc2n1C)c1ncccn1 | % | 12

###

# TARGET_OR_SYSTEM: UniProtKB Q12809
# Sequence (Q12809 whole entry): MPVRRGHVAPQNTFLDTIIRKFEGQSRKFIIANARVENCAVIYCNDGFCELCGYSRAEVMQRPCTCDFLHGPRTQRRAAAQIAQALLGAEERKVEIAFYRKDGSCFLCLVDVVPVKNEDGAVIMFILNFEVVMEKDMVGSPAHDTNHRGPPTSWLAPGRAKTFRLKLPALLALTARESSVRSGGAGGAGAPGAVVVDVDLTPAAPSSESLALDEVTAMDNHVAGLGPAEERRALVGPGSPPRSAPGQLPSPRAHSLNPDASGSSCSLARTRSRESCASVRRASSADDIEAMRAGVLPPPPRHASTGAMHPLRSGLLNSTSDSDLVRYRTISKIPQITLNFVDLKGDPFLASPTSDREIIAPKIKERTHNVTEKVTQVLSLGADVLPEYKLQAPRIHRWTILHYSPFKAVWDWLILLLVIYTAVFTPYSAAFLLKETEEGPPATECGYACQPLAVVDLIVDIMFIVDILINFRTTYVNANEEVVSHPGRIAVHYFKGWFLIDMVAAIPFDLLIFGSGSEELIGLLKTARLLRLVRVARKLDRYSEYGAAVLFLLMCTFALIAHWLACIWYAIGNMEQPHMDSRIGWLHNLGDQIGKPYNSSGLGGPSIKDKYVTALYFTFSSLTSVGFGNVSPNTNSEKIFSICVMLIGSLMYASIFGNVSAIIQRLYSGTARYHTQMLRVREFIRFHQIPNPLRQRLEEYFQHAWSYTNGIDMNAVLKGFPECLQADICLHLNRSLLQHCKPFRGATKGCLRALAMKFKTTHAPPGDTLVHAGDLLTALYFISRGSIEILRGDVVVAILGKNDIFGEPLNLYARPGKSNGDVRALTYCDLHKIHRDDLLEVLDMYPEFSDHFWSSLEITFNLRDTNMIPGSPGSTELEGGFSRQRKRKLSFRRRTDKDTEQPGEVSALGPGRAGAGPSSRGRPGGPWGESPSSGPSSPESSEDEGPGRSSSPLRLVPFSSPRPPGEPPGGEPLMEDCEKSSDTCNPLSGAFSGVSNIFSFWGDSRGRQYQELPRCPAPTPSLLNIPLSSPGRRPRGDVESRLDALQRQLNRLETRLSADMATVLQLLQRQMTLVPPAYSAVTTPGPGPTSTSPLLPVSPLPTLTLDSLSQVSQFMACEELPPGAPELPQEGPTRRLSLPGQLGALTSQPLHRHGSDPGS
# MEASUREMENT_NOTES: Displacement of [3H]-dofetilide from human recombinant ERG at 10 uM relative to control
# RUN_CONDITIONS: probe [3H]-dofetilide

SMILES_NOTATION | TARGET_OR_SYSTEM | inhibition at 10 µM [%]
C/C(=N\Nc1nccn1C)c1ccccn1 | UniProtKB Q12809 | 7
C/C(=N\Nc1nc2ccccc2s1)c1ccccn1 | UniProtKB Q12809 | 19
C/C(=N\Nc1nc2ccccc2s1)c1ncccn1 | UniProtKB Q12809 | -2
C/C(=N\Nc1nc2ccccc2n1CCN1CCOCC1)c1ccccn1 | UniProtKB Q12809 | 76
C/C(=N\Nc1nc2ccccc2s1)c1cc(OCCN(C)C)ccn1 | UniProtKB Q12809 | 95
C/C(=N\Nc1nc2ccccc2o1)c1ccccn1 | UniProtKB Q12809 | 21
C/C(=N\Nc1nc2ccccc2n1C)c1ncccn1 | UniProtKB Q12809 | 77

###

# MEASUREMENT_NOTES: Stability in simulated gastric fluid assessed as parent compound remaining measured after 6 hrs at room temperature
# Type: ADME
# RUN_CONDITIONS: read-out: Stabilty

SMILES_NOTATION | remaining at 6 h
C/C(=N\Nc1nc2ccccc2n1CCN1CCC(F)(F)C1)c1ccccn1 | > 92%

###

# MEASUREMENT_NOTES: Stability in simulated gastric fluid assessed as parent compound remaining measured after 7 hrs at room temperature
# Format: ADME
# RUN_CONDITIONS: read-out: Stabilty

SMILES_NOTATION | remaining at 7 h / %
C/C(=N\NC(=S)N1CCC1)c1ccccn1 | 22

###

Examples of compounds with documented inhibition at 1 h, 10 µM follow.
# TARGET_OR_SYSTEM: 5-hydroxytryptamine receptor 2A (Homo sapiens, UniProt P28223)
# Sequence (P28223 whole entry): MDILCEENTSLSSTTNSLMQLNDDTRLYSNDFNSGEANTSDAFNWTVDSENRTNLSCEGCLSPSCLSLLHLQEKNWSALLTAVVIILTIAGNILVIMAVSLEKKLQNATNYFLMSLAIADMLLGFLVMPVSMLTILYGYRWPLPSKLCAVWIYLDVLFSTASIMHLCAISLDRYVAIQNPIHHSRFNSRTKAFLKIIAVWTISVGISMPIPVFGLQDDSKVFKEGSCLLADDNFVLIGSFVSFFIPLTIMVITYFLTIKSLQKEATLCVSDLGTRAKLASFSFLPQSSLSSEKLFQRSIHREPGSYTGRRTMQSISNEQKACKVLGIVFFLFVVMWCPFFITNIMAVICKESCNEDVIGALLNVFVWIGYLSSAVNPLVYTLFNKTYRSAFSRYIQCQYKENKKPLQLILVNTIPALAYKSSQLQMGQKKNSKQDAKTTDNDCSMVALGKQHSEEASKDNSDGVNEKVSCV
# MEASUREMENT_NOTES: Displacement of [125I]+/-DOI from human recombinant 5-HT2A receptor at 10 uM after 60 mins by scintillation counting analysis relative to control
# RUN_CONDITIONS: recombinant human 5-HT2A receptor, probe [125I]+/-DOI
RECORDED_METRIC: inhibition at 1 h, 10 µM (%)

SMILES_NOTATION | RECORDED_METRIC | UNIT_DESCRIPTOR | RESULT
C/C(=N\Nc1nc2ccccc2n1CCN1CCCC1)c1ccccn1 | inhibition at 1 h, 10 µM | % | 96
C/C(=N\Nc1nc2ccccc2n1C)c1ccccn1 | inhibition at 1 h, 10 µM | % | 46
C/C(=N\Nc1nc2ccccc2n1C)c1ncccn1 | inhibition at 1 h, 10 µM | % | 11
C/C(=N\Nc1nc2ccccc2o1)c1cc(OCCN(C)C)ccn1 | inhibition at 1 h, 10 µM | % | 32
C/C(=N\Nc1nc2ccccc2n1CCN1CCOCC1)c1ccccn1 | inhibition at 1 h, 10 µM | % | 100
C/C(=N\Nc1nc2ccccc2s1)c1ncccn1 | inhibition at 1 h, 10 µM | % | 3
C/C(=N\Nc1nc2ccccc2s1)c1cc(OCCN(C)C)ccn1 | inhibition at 1 h, 10 µM | % | 76
C/C(=N\Nc1nc2ccccc2n1CCN1CCC(F)(F)C1)c1ccccn1 | inhibition at 1 h, 10 µM | % | 92
C/C(=N\Nc1nc2ccccc2s1)c1ccccn1 | inhibition at 1 h, 10 µM | % | 96
C/C(=N\Nc1nccn1C)c1ccccn1 | inhibition at 1 h, 10 µM | % | 11

###

# MEASUREMENT_NOTES: Induction of Zinc-dependent p53 R175H mutant refolding by assessing wild type conformation
Active and inactive are the calls of the source. No cut-off for these calls is given here.
Outcome codes: active, inactive

SMILES_NOTATION | LABEL_CLASS
C/C(=N\Nc1nc2ccccc2n1CCN1CCCC1)c1ccccn1 | active
C/C(=N\Nc1nc2ccccc2s1)c1cc(OCCO)ccn1 | inactive
C/C(=N\Nc1nc2ccccc2n1CCN(C)C)c1ccccn1 | active
C/C(=N\NC(=S)N(C)C)c1ccccn1 | active
C/C(=N\NC(=S)NC1CCN(c2ccccn2)CC1)c1ccccn1 | inactive
C/C(=N\NC(=S)N1CCC1)c1ccccc1 | inactive
C/C(=N\Nc1nc2ccccc2o1)c1cc(OCCN(C)C)ccn1 | active
C/C(=N\Nc1nc2ccccc2s1)c1cc(N(C)C)ccn1 | active
CC(C)(C)/C(=N\NC(=S)N1CCC1)c1ccccn1 | inactive
COC/C(=N\Nc1nc2ccccc2s1)c1ccccn1 | active
C/C(=N\Nc1nc2ccccc2s1)c1cc(OCCN2CCN(C)CC2)ccn1 | inactive
C/C(=N\NC(=S)N1CCC1)c1ncccc1C | inactive

###

# MEASUREMENT_NOTES: Induction of Zinc-dependent p53 R175H mutant refolding by assessing wild type conformation
Active and inactive are the calls of the source. No cut-off for these calls is given here.
Outcome codes: active, inactive

SMILES_NOTATION | LABEL_CLASS
C/C(=N\Nc1nc2ccccc2n1CCN1CCC(F)(F)C1)c1ccccn1 | active
C/C(=N\NC(=S)N1CCC1)c1cccc(C)n1 | active
C/C(=N\Nc1nc2ccccc2n1CCN1CCOCC1)c1ccccn1 | active
C/C(=N\Nc1nc2ccccc2s1)c1ccccn1 | active
C/C(=N\Nc1ccc2ccccc2n1)c1ccccn1 | active
C/C(=N\Nc1nc2ccccc2o1)c1ccccn1 | active
C/C(=N\NC(=O)N1CCC1)c1ccccn1 | inactive
C/C(=N\NC(=S)N1CCC1)c1cnccn1 | active
COCCOc1ccc2nc(N/N=C(\C)c3ccccn3)sc2c1 | active
C/C(=N\Nc1nc2ccccc2n1C)c1ccccn1 | active
C/C(=N\Nc1nc2ccccc2n1C)c1ncccn1 | inactive
C/C(=N\NC(=S)N1CCC1)c1cc(N(C)C)ccn1 | inactive
C/C(=N\Nc1nc2ccccc2s1)c1ncccn1 | inactive

###

# TARGET_OR_SYSTEM: Sodium-dependent noradrenaline transporter (Homo sapiens)
# Sequence (P23975 whole entry): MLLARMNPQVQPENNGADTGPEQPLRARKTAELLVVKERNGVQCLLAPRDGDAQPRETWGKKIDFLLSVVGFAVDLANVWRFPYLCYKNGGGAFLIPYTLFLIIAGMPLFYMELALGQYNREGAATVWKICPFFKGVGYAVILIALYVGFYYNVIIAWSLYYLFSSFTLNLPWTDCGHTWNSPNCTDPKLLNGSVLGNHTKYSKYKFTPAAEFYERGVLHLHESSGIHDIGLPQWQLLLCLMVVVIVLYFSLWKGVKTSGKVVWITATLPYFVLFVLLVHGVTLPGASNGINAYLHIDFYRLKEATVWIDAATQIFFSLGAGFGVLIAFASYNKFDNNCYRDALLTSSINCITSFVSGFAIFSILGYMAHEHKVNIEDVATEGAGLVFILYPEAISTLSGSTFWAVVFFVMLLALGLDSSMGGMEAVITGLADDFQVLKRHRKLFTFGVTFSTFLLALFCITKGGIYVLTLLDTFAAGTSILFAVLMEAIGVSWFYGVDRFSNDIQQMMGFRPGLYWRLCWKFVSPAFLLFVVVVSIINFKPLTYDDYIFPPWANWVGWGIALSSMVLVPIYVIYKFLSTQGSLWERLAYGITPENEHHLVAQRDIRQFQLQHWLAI
# MEASUREMENT_NOTES: Displacement of [3H]nisoxetine from recombinant human norepinephrine transporter at 10 uM incubated for 120 mins by radiometric scintillation analysis relative to control
# Format: ADME
# RUN_CONDITIONS: probe [3H]nisoxetine

SMILES_NOTATION | inhibition at 2 h, 10 µM, %
C/C(=N\Nc1nc2ccccc2s1)c1ccccn1 | 101
C/C(=N\Nc1nc2ccccc2n1CCN1CCCC1)c1ccccn1 | 101
C/C(=N\Nc1nc2ccccc2o1)c1ccccn1 | 21
C/C(=N\Nc1nc2ccccc2n1CCN1CCC(F)(F)C1)c1ccccn1 | -1
C/C(=N\Nc1nc2ccccc2s1)c1ncccn1 | 84
C/C(=N\Nc1nccn1C)c1ccccn1 | 4
C/C(=N\Nc1nc2ccccc2n1C)c1ccccn1 | 61
C/C(=N\Nc1nc2ccccc2o1)c1cc(OCCN(C)C)ccn1 | -25
C/C(=N\Nc1nc2ccccc2s1)c1cc(OCCN(C)C)ccn1 | 82
C/C(=N\Nc1nc2ccccc2n1C)c1ncccn1 | -2
C/C(=N\Nc1nc2ccccc2n1CCN1CCOCC1)c1ccccn1 | -7
